Tested on: Mycobacterium tuberculosis Erdman (autoluminescent)
Assay: GRinf, maximum normalised growth rate inhibition (three-drug combination) (unitless (-1 to 1)); higher = less effect (negative = killing)
Conditions: in vitro model: butyrate; time point: constant (~7 days, model-specific)
readout.kind: GRinf
Answer with a number only.

{"columns": ["molecule", "GRinf"],
 "data": [
  ["COc1nc2ccc(Br)cc2cc1[C@@H](c1ccccc1)[C@@](O)(CCN(C)C)c1cccc2ccccc12 [bedaquiline] + NNC(=O)c1ccncc1 [isoniazid] + NC(=O)c1cnccn1 [pyrazinamide]", -0.109]
]}

Moving on to another molecule below.
Reported GRinf ( COc1nc2ccc(Br)cc2cc1[C@@H](c1ccccc1)[C@@](O)(CCN(C)C)c1cccc2ccccc12 [bedaquiline] + NNC(=O)c1ccncc1 [isoniazid] + CO[C@H]1/C=C/O[C@@]2(C)Oc3c(C)c(O)c4c(O)c(c(/C=N/N5CCN(C6CCCC6)CC5)c(O)c4c3C2=O)NC(=O)/C(C)=C\C=C\[C@H](C)[C@H](O)[C@@H](C)[C@@H](O)[C@@H](C)[C@H](OC(C)=O)[C@@H]1C [rifapentine] ) = -0.0408

====

Test system: Mycobacterium tuberculosis Erdman (autoluminescent)
Assay: Einf, fitted maximum growth inhibition of three-drug combination (fraction); higher = stronger maximal inhibition
Conditions: in vitro model: acidic pH 5.7; time point: constant (~7 days, model-specific)
So basically: Einf at 0.8 or higher? That is satisfied. Lower than 0.8? That is not satisfied.

{"columns": ["molecule", "target", "category"],
 "data": [
  ["COc1nc2ccc(Br)cc2cc1[C@@H](c1ccccc1)[C@@](O)(CCN(C)C)c1cccc2ccccc12 [bedaquiline] + CC(C)/N=c1\\cc2n(-c3ccc(Cl)cc3)c3ccccc3nc-2cc1Nc1ccc(Cl)cc1 [clofazimine] + CC[C@@H](CO)NCCN[C@@H](CC)CO [ethambutol]", "Mycobacterium tuberculosis Erdman (autoluminescent)", "satisfied"]
]}

Decide: is the reported value of Einf for CC(=O)NC[C@H]1CN(c2ccc(N3CCOCC3)c(F)c2)C(=O)O1 [linezolid] + NC(=O)c1cnccn1 [pyrazinamide] + CO[C@H]1/C=C/O[C@@]2(C)Oc3c(C)c(O)c4c(O)c(c(/C=N/N5CCN(C)CC5)c(O)c4c3C2=O)NC(=O)/C(C)=C\C=C\[C@H](C)[C@H](O)[C@@H](C)[C@@H](O)[C@@H](C)[C@H](OC(C)=O)[C@@H]1C [rifampicin] equal to or greater than 0.8? satisfied

Decide: is the reported value of Einf for COc1nc2ccc(Br)cc2cc1[C@@H](c1ccccc1)[C@@](O)(CCN(C)C)c1cccc2ccccc12 [bedaquiline] + O=[N+]([O-])c1cn2c(n1)OC[C@@H](OCc1ccc(OC(F)(F)F)cc1)C2 [pretomanid] + CO[C@H]1/C=C/O[C@@]2(C)Oc3c(C)c(O)c4c(O)c(c(/C=N/N5CCN(C)CC5)c(O)c4c3C2=O)NC(=O)/C(C)=C\C=C\[C@H](C)[C@H](O)[C@@H](C)[C@@H](O)[C@@H](C)[C@H](OC(C)=O)[C@@H]1C [rifampicin] equal to or greater than 0.8? satisfied

Decide: is the reported value of Einf for CC[C@@H](CO)NCCN[C@@H](CC)CO [ethambutol] + NNC(=O)c1ccncc1 [isoniazid] + COc1c(N2C[C@@H]3CCCN[C@@H]3C2)c(F)cc2c(=O)c(C(=O)O)cn(C3CC3)c12 [moxifloxacin] equal to or greater than 0.8? not satisfied

Decide: is the reported value of Einf for CC(C)/N=c1\cc2n(-c3ccc(Cl)cc3)c3ccccc3nc-2cc1Nc1ccc(Cl)cc1 [clofazimine] + NNC(=O)c1ccncc1 [isoniazid] + COc1c(N2C[C@@H]3CCCN[C@@H]3C2)c(F)cc2c(=O)c(C(=O)O)cn(C3CC3)c12 [moxifloxacin] equal to or greater than 0.8? not satisfied

Decide: is the reported value of Einf for CC(=O)NC[C@H]1CN(c2ccc(N3CCOCC3)c(F)c2)C(=O)O1 [linezolid] + O=[N+]([O-])c1cn2c(n1)OC[C@@H](OCc1ccc(OC(F)(F)F)cc1)C2 [pretomanid] + CO[C@H]1/C=C/O[C@@]2(C)Oc3c(C)c(O)c4c(O)c(c(/C=N/N5CCN(C6CCCC6)CC5)c(O)c4c3C2=O)NC(=O)/C(C)=C\C=C\[C@H](C)[C@H](O)[C@@H](C)[C@@H](O)[C@@H](C)[C@H](OC(C)=O)[C@@H]1C [rifapentine] equal to or greater than 0.8? satisfied

The reported measurements were obtained from the supplement of paper PMC8617591.
